Kindly state IC50 for each of the entries shown.
Biological target: full-length SARM1 (FL-SARM1) (Homo sapiens)
Sequence (Q6SZW1 28-724): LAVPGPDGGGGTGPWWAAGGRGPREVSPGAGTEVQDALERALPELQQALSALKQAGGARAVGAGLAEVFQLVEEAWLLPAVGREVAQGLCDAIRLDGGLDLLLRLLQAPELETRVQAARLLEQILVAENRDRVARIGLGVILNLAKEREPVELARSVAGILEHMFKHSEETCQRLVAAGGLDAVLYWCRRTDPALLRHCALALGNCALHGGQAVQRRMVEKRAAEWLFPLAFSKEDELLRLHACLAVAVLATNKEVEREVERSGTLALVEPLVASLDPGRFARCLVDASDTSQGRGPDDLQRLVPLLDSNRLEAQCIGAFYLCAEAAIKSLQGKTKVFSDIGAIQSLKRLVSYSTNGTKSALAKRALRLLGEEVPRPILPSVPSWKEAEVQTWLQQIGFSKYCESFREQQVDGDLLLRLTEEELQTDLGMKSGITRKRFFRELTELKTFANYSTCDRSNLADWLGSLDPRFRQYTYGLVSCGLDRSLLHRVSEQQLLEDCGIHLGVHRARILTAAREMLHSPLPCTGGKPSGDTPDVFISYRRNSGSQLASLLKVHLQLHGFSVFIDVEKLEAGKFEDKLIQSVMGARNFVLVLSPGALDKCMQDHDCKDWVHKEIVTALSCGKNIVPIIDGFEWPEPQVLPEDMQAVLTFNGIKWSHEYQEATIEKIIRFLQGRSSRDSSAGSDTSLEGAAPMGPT
Assay: FL-SARM1 cellular lysate assay (NAD/NADH-Glo detection of remaining NAD+, NMN-activated)
Details: Activity (μM) (IC50), 11 point curve
Quick note: number first, unit second.

Prompt: Which IC50 is reported for this compound? "Cc1ccc(NC(=O)[C@@H]2CC2(F)F)cc1-c1ccccn1"
Completion: 2.6 µM

Prompt: How about this compound: "Cc1cc(F)c(NC(=O)N2[C@@H]3C[C@@H](C)C[C@H]2C3)cc1-c1nccnn1"
Completion: 0.09 µM

Prompt: And for Cc1ccc(NC(=O)N2C3CCC2c2c(F)cncc23)cc1-c1ccccn1 (stereo not drawn) ?
Completion: 0.4 µM

Prompt: Try this compound next: Cc1ccc(NC(=O)N2CC3CCC2c2ccccc23)cc1-c1ccccn1 (stereo not drawn)
Completion: 1.1 µM

Prompt: Query "Cc1ccc(NC(=O)CN2C(=O)COCc3ccccc32)cc1-c1ccccn1" next
Completion: 9.7 µM

Prompt: Further, for "COC(=O)N1C[C@@H]2C[C@H]1CN2C(=O)Nc1ccc(C)c(-c2ccccn2)c1" ?
Completion: 23 µM

Prompt: Another compound to look at: "Cc1ccc(NC(=O)[C@H]2[C@@H](C)CCN2c2ccccn2)cc1-c1ncc(F)cn1"
Completion: 1.4 µM

Prompt: Can you handle "Cc1ccc(NC(=O)N2C3C[C@@H](C)C[C@H]2C3)cc1-c1nccc(OC(F)F)n1" next?
Completion: 0.1 µM

Prompt: Also "Cc1ccc(NC(=O)N2C3CC2CN(c2ccn(C)n2)C3)cc1-c1ccccn1" ?
Completion: 23 µM

Prompt: Try "O=C(Nc1ccc(C(F)(F)F)c(-c2ccccn2)c1)N1C2CCCC1C2" next.
Completion: 0.3 µM

Prompt: What do you get for "Cc1ccc(NC(=O)[C@H]2CC[C@@H](C(F)(F)F)N2c2ccccn2)cc1-c1ncc(F)cn1" ?
Completion: 6.3 µM

Prompt: Now give it for "Cc1cc(F)c(NC(=O)N2C3CC2CN(CC(F)(F)F)C3)cc1-c1ccccn1" too.
Completion: 1.2 µM

Prompt: Request: "Cc1cnc(-c2cc(NC(=O)N3C4CCCC3C4)ccc2C)nn1"
Completion: 0.9 µM

Prompt: What do we get for "Cc1ccc(NC(=O)N2[C@@H]3C[C@@H](C)C[C@H]2C3)cc1-c1nccc(C2CC2)n1" ?
Completion: 0.7 µM

Prompt: Check "COc1ccc(-c2cc(NC(=O)[C@@H]3CC3(F)F)ccc2C)nc1" too.
Completion: 3.6 µM

Prompt: Please do the same for Cc1ccc(NC(=O)C2CCCC2C)cc1-c1ccccn1 (stereo not drawn) as well.
Completion: 0.7 µM

Prompt: And then "Cc1ccc(NC(=O)N2C3CCCC2C3)cc1-c1nccc(C(F)(F)F)n1" , what is it?
Completion: 4.7 µM

Prompt: Next compound: Cc1ccc(NC(=O)N2C3CC2C(=O)N(C)C3)cc1-c1ccccn1 (stereo not drawn)
Completion: 2 µM
